Each recorded value in this set is attributed to patent US20250368639A1.

# measurement_protocol: Single-dose pharmacokinetic study, oral and intravenous, in SD rats
# Type: in vivo, SD rat
# applied_conditions: male, SD, rat, plasma, po, 10 mg/kg, male SD rats, oral 10 mg/kg, Average (Table 10); read-out: HL_Lambda_z (T1/2) (converted)
readout: half-life (min)
Answer with a number only, understood to be in min.

Please report the recorded half-life for CCc1nc2ccccn2c1C(=O)c1cc(Br)c(O)c(C#N)c1 [Form 2] . 185

====

# measurement_protocol: Single-dose pharmacokinetic study, oral and intravenous, in SD rats
# Format: in vivo, SD rat
# applied_conditions: male, SD, rat, plasma, po, 10 mg/kg, male SD rats, oral 10 mg/kg, Average (Table 11)
readout: Tmax

Param item = CCc1nc2ccccn2c1C(=O)c1cc(Br)c(O)c(C#N)c1 [Form 5D] ; retrieve measured Tmax. 3.33 h
